target: DRB1*0802 (Homo sapiens, UniProt P01903+P01911, A100R/A103L/A169T/F76Y/H45Y/I96F/K41T/L162R/M171V/P40S/Q125H/Q178H/Q39Y/Q99D/R218S/R42G/S66Y/V115G/W38E); construct: Epstein-Barr virus (EBV) transformed homozygous cell lines were used as sources of human HLA Class II molecules; endogenous in cells; host or cells: OLL (EBV-transformed homozygous B cell line); assay: Class II peptide-binding assay DRB1*0802 (DR8w2)
parameter: IC50 (nM)
Reply numerically in nM, unit not repeated.

-- ask Find the recorded IC50 belonging to `CC(C)C[C@H](NC(=O)[C@H](CC(=O)O)NC(=O)[C@H](CC(N)=O)NC(=O)[C@H](CO)NC(=O)[C@H](Cc1ccc(O)cc1)NC(=O)[C@@H](NC(=O)[C@H](CCCNC(=N)N)NC(=O)[C@H](Cc1ccccc1)NC(=O)[C@H](CC(C)C)NC(=O)[C@H](CCCCN)NC(=O)[C@H](CCCNC(=N)N)NC(=O)[C@H](Cc1ccccc1)NC(=O)[C@@H](NC(=O)[C@@H](N)CC(=O)O)[C@@H](C)O)C(C)C)C(=O)N[C@@H](CCCNC(=N)N)C(=O)O` and report it.
-- reply 75

-- ask Find the recorded IC50 belonging to `CC[C@H](C)[C@H](NC(=O)[C@@H](NC(=O)[C@H](CCCCN)NC(=O)[C@H](CCC(=O)O)NC(=O)[C@H](CC(C)C)NC(=O)[C@H](CC(C)C)NC(=O)[C@@H]1CCCN1C(=O)[C@H](CC(C)C)NC(=O)[C@@H](N)CC(C)C)C(C)C)C(=O)NCC(=O)N[C@@H](C)C(=O)NCC(=O)N[C@@H](CCCCN)C(=O)N1CCC[C@H]1C(=O)N[C@@H](CC(C)C)C(=O)O` and report it.
-- reply 440

-- ask Find the recorded IC50 belonging to `CC(C)C[C@H](NC(=O)CN)C(=O)N[C@@H](CCCNC(=N)N)C(=O)N[C@@H](CO)C(=O)N[C@@H](CC(C)C)C(=O)N[C@H](C(=O)N[C@H](C(=O)N[C@@H](CC(C)C)C(=O)N[C@@H](CC(C)C)C(=O)N[C@@H](CC(=O)O)C(=O)N[C@@H](C)C(=O)N[C@@H](CC(C)C)C(=O)NCC(=O)N[C@@H](C)C(=O)N[C@@H](CCC(N)=O)C(=O)O)[C@@H](C)O)[C@@H](C)O` and report it.
-- reply 240

----------
Give measured pIC50 for each item. Keep answers brief.
biological target: DRB1*0401 (Homo sapiens, UniProt P01903+P01911, A100K/A169T/F76Y/I96L/K127E/L162R/M171V/N62H/P40V/Q125Y/R42H/S133A/S149N/S66Y/V115G/V209L/W38E); construct: Epstein-Barr virus (EBV) transformed homozygous cell lines were used as sources of human HLA Class II molecules; endogenous in cells; host or cells: PREISS (EBV-transformed homozygous B cell line); assay: Class II peptide-binding assay DRB1*0401 (DR4w4)
Ends that are not written are not given here.
Remember the convention: pIC50 equals -log10 of concentration in molar.

-- ask Find the recorded pIC50 belonging to `DIEKKIAKMEKASSVFNVVNS` and report it.
-- reply 7.01

-- ask Find the recorded pIC50 belonging to `DTGRKLFRVYSNFLR` and report it.
-- reply 7.34

-- ask Find the recorded pIC50 belonging to `YTLLQAAPALDKLKLTGDEATGANI` and report it.
-- reply 6.54
